Documented efficacy across a set of compounds
- Tested on: HCT116;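 also: Luminescence-based viability readout, five doses per compound, normalized against on-plate DMSO and empty-well controls, followed by dose-response curve fitting for every drug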
- assayRemarks: efficacy (fitted maximal change in viability relative to DMSO control); higher = less cytotoxic (negative = loss of viability)
- experimentalParameters: 48 h
measuredParameter: efficacy (%)

# compound, measuredParameter, val
data = [
    ("COc1c(Cl)cc2c([nH]c3cnccc32)c1NC(=O)c1cccnc1C [MLN-120B]", "efficacy", -95.3),
    ("CCN(C(=O)c1ccccc1OC)c1cc2c(cc1N1CCNC[C@H]1C)n(C)c(=O)n2C", "efficacy", -8.64),
    ("CN(C)CC(C)(C)CNc1nn2c(-c3ccccc3)nnc2cc1C1CCC1", "efficacy", -8.48),
    ("Clc1ccc(C(Cn2ccnc2)OCc2c(Cl)cccc2Cl)c(Cl)c1 (stereo not drawn) [Isoconazole nitrate]", "efficacy", -77.2),
    ("CC1(C)[C@@H](O)CC[C@@]2(C)[C@H]1CC[C@]3(C)[C@@H]2C(=O)\\C=C/4[C@@H]5C[C@](C)(CC[C@]5(C)CC[C@@]34C)C(O)=O", "efficacy", -35.4),
    ("Fc1ccc(Cl)cc1-c1nc(Nc2ccncc2)c2nccnc2n1", "efficacy", -22.5),
    ("O=C1\\C=C(OC2=C1SC=C2C3=CC=C4OCCOC4=C3)\\N5CCOCC5", "efficacy", -69.9),
    ("CCc1ccc2nc(Nc3cc(Cc4ccccc4)nc(N[C@H]4CC[C@H](O)CC4)n3)sc2c1", "efficacy", -65.1),
]
